conditions: buffer; pH 7.4; 200.0 µM
Non-standard residues stand in square brackets, D forms with d. Residues, ends and D or L forms follow the SMILES beside them. *: point of attachment. Tic = O=C(O)[C@@H]1Cc2ccccc2CN1; NHPr = CCCN*
RESULT_TYPE: solubility kinetic

input: May I ask what solubility kinetic has been recorded for O=C(NCCCNC(=O)c1ccccn1)c1ccc(Cl)cc1 ?
output: 39 µg/mL

input: // next record CC1(C)Cc2ccccc2C(C(=O)c2ccccc2)=N1
output: 31 µg/mL

input: // next record O=C(CCCn1cnc([N+](=O)[O-])n1)Nc1cccc(O)c1
output: > 43.7 µg/mL

input: // next record CCOCCc1c(O)[nH]c(=S)[nH]c1=O
output: > 32.4 µg/mL

input: // next record C=CCn1c(O)c(C(CC)=Nc2ccc(NC(C)=O)cc2)c(=O)[nH]c1=O
output: > 53.5 µg/mL

input: // next record O=C(c1ccc2ccccc2c1)N1CCc2ccccc21
output: < 0.6 µg/mL

input: // next record CCC1CCCCN1C(=O)COc1ccc(F)cc1 (stereo not drawn)
output: 38.1 µg/mL

input: // next record Cc1ccc(-n2c(C)nnc2SC(C)C(=O)N2CCCC2)cc1 (stereo not drawn)
output: > 49.6 µg/mL

input: // next record Cc1cc(C(=O)O/N=C(\N)c2ccncc2)ccc1[N+](=O)[O-]
output: 25.1 µg/mL

input: // next record COc1ccccc1C(=O)NCCC(=O)NCC1CCCCC1
output: 47.4 µg/mL

input: // next record Cc1cccc(C)c1NC(=O)c1cccc(C(=O)Nc2c(C)cccc2C)n1
output: 27.7 µg/mL

input: // next record CCCNC(=O)[C@@H]1CCCN1C(=O)[C@@H]1Cc2ccccc2CN1.Cl (H-[Tic]-Pro-NHPr)
output: > 52.8 µg/mL

input: // next record Cc1cc(SCC(=O)[O-])nc2ccccc12
output: 31 µg/mL

input: // next record CC(C)Oc1cccc(C(=O)C2CCCN(C(=O)c3ccsc3)C2)c1 (stereo not drawn)
output: 44.8 µg/mL

input: // next record Cc1ccccc1C(=O)NCC(=O)N1CCN(C/C=C/c2ccccc2)CC1
output: > 56.6 µg/mL

input: // next record COc1ccc(CN(C)C(=O)COC(=O)c2cnc(Cl)c(Cl)c2)cc1
output: 53.1 µg/mL

input: // next record O=C1COc2ccc(N3C(=O)c4ccccc4C3=O)cc2N1
output: 1.9 µg/mL

input: // next record N/C(=N\OC(=O)c1cccs1)c1ccc(Cl)cc1
output: 3.5 µg/mL

input: // next record O=C(NC1(C(F)(F)F)OCCO1)c1ccc(F)cc1
output: 32.9 µg/mL

input: // next record Cc1cccc(C)c1NC(=O)COC(=O)c1cc(S(=O)(=O)Nc2ccc(Cl)cc2)ccc1O
output: 11.5 µg/mL

input: // next record COc1cccc(C(=O)Nc2ccc(NC(=O)C3CC3)nc2)c1
output: 1.6 µg/mL

input: // next record O=C(CN1C(=O)COc2ccccc21)NCCN1CCOCC1
output: > 47.9 µg/mL

input: // next record C/C=C/n1ccnc1CC(O)(c1ccccc1)c1ccc(C)cc1 (stereo not drawn)
output: 3.3 µg/mL

input: // next record O=C(CNC(=O)c1cccs1)c1ccc(Br)cc1
output: 17.9 µg/mL

input: // next record Cc1cc(NC(=O)CSc2ccc(F)cc2)no1
output: > 39.9 µg/mL

input: // next record NS(=O)(=O)c1ccc(CCNC(=O)C2CCN(C(=O)Nc3ccccc3)CC2)cc1
output: 63.9 µg/mL

input: // next record Cc1ccc(C(=O)OCC(=O)N2CC(C)OC(C)C2)cc1 (stereo not drawn)
output: > 43.7 µg/mL

input: // next record CCN(CC(=O)NCc1cccs1)C(=O)c1ccc(S(=O)(=O)N(C)c2ccccc2)cc1
output: > 70.7 µg/mL

input: // next record O=C(O)c1ccc(S(=O)(=O)N2CCCC2)cc1
output: 37.6 µg/mL

input: // next record Cc1ccccc1OP(N)(=O)Oc1ccccc1C
output: > 41.6 µg/mL

input: // next record COc1ccc(NC(=O)C#Cc2ccccc2)cc1OC
output: 37.6 µg/mL

input: // next record Cc1cc(C)n(-c2cc(C(=O)O)cc(C(=O)O)c2)n1
output: > 39 µg/mL

input: // next record CCCc1ccc2oc(C(=O)N(C)Cc3nccs3)c(C)c2c1
output: 14 µg/mL

input: // next record CCOC(=O)CC(=O)NC(CC(=O)OC)c1ccc(Br)cc1 (stereo not drawn)
output: 45.7 µg/mL

input: // next record C/C(=N\O)c1cc(Cl)cc(Cl)c1O
output: 30.5 µg/mL

input: // next record CCOc1ccccc1CNc1nc2ccccc2n1C
output: 5.2 µg/mL

input: // next record Cc1cc(NC(=O)CSc2nc(C)c(C)c(=O)[nH]2)no1
output: > 44.1 µg/mL

input: // next record COc1cc(C(=O)NC2CCCc3ccccc32)cc(OC)c1OC (stereo not drawn)
output: 5.9 µg/mL

input: // next record Cc1ccc(NC(=O)CCC(=O)N2CCOCC2)nc1
output: > 41.6 µg/mL

input: // next record CCCCNC(=O)O/N=C(\N)CS(=O)(=O)C(C)(C)C
output: 36.5 µg/mL

input: // next record O=C(CSc1nccc(=O)[nH]1)c1ccco1
output: > 35.4 µg/mL

input: // next record COc1cnc(-c2ccccn2)nc1N(C)c1ccccc1
output: 39.7 µg/mL

input: // next record CC(C)(O)C(=O)NNC(=S)NCc1ccco1
output: > 38.6 µg/mL

input: // next record CN1CCCN(C(=O)c2ccc(Cl)cc2)CC1
output: 32.9 µg/mL

input: // next record O=[N+]([O-])c1ccccc1S(=O)(=O)NC1CC2CCC1C2 (stereo not drawn)
output: > 44.5 µg/mL

input: // next record COc1ccc(C(=O)O)cc1S(=O)(=O)NCc1cccnc1
output: > 48.4 µg/mL

input: // next record N/C(=N\OC(=O)c1ccc(Br)cc1)c1cccc([N+](=O)[O-])c1
output: 0.8 µg/mL

input: // next record Cc1ccc(NC(=O)c2ccc(COc3ccccc3)o2)nc1
output: 16 µg/mL

The measured values listed here are drawn from PubChem BioAssay AID1996.
